Here's a roundup of IC50 values tested on Xanthine dehydrogenase/oxidase (Bos taurus, UniProt P80457), taken from various published works.
Readout Kind: IC50

Structure As Smiles: O=c1cc(-c2ccc(O)cc2)oc2cc(O)cc(O)c12
Readout Kind: IC50
Endpoint Result: 0.44 µM

Structure As Smiles: O=C(/C=C/c1ccc(O)c(O)c1)O[C@H](Cc1ccc(O)c(O)c1)C(=O)O
Readout Kind: IC50
Endpoint Result: 91.7 µM

Structure As Smiles: O=C(/C=C/c1ccc(O)c(O)c1)O[C@@H]1CC(C(=O)O)=C[C@@H](O)[C@H]1O
Readout Kind: IC50
Endpoint Result: 14 µM

Structure As Smiles: COc1cc(CCc2ccc(O)cc2)c(C(=O)O)c(OC(C)=O)c1
Readout Kind: IC50
Endpoint Result: 71.4 µM

Structure As Smiles: O=C(/C=C/c1ccc(O)c(O)c1)O[C@H]1[C@H](O)C[C@](O)(C(=O)O)C[C@H]1OC(=O)/C=C/c1ccc(O)c(O)c1
Readout Kind: IC50
Endpoint Result: 44.6 µM

Structure As Smiles: COc1cc(CCc2ccc(Oc3cc(CCc4ccc(Oc5cc(CCc6ccc(O)cc6)c(C(=O)O)c(OC)c5)cc4)c(C(=O)O)c(OC)c3)cc2)c(C(=O)O)c(OC)c1
Readout Kind: IC50
Endpoint Result: > 100 µM

Structure As Smiles: CO[C@]1(CC[C@@H](C)CO[C@@H]2O[C@H](CO)[C@@H](O)[C@H](O)[C@H]2O)O[C@H]2C[C@H]3[C@@H]4CC=C5C[C@@H](O[C@@H]6O[C@H](CO)[C@@H](O[C@@H]7O[C@@H](C)[C@H](O)[C@@H](O)[C@H]7O)[C@H](O)[C@H]6O[C@@H]6O[C@@H](C)[C@H](O)[C@@H](O)[C@H]6O)CC[C@]5(C)[C@H]4CC[C@]3(C)[C@H]2[C@@H]1C
Readout Kind: IC50
Endpoint Result: 220 µM

====

Here's a roundup of IC50 values tested on Xanthine dehydrogenase/oxidase (Bos taurus, UniProt P80457), taken from various published works.
Rule for this label: YES means IC50 is less than 80 µM; NO means IC50 is at least 80 µM.

Compound: O=C(/C=C/c1ccc(O)c(O)c1)O[C@@H]1CC(O)(C(=O)O)C[C@@H](OC(=O)/C=C/c2ccc(O)c(O)c2)C1O (stereo partly drawn)
Answer Label: YES
//
Compound: O=C(/C=C/c1ccc(O)c(O)c1)O[C@@H]1[C@H](O)C[C@@](O)(C(=O)O)C[C@H]1OC(=O)/C=C/c1ccc(O)c(O)c1
Answer Label: YES
//
Compound: O=c1c(O[C@@H]2O[C@H](CO)[C@H](O)[C@H](O)[C@H]2O[C@@H]2O[C@H](CO)[C@@H](O)[C@H](O)[C@H]2O)c(-c2ccc(O)c(O)c2)oc2cc(O)cc(O)c12
Answer Label: NO
//
Compound: CC(CCC1(O)OC2CC3C4CC=C5CC(OC6OC(CO)C(O)C(OC7OC(CO)C(O)C(O)C7O)C6OC6OC(C)C(O)C(O)C6O)CCC5(C)C4CCC3(C)C2C1C)COC1OC(CO)C(O)C(O)C1O (stereo not drawn)
Answer Label: NO
//
Compound: COc1cc(O)c(C(=O)O)c(CCc2ccc(O)cc2)c1
Answer Label: NO
